experimental details: LogD, miniaturized 1-octanol/pH 7.4 buffer shake flask method, LC/MS/MS
Format: physicochemical
Where a SMILES comes first, the peptide text is derived from it. [ ]: non-standard residue; d: D form. The star is where a group is joined. ξ: configuration not given here. Dolaproine = CO[C@@H]([C@@H]1CCCN1)[C@@H](C)C(=O)O; Dil = CC[C@H](C)[C@H](NC)[C@@H](CC(=O)O)OC; Doe = c1ccc(C[C@H](N*)c2nccs2)cc1; X1 = C[C@@H](N*)[C@@H](O)c1ccccc1; NMeV = CN[C@H](C(=O)O)C(C)C; NMeS = CN[C@@H](CO)C(=O)O; ξαMeS = CC(N)(CO)C(=O)O
Some compounds, each annotated with its measured logD.

Worked set:
>>> endpoint_result("CC[C@H](C)[C@@H]([C@@H](CC(=O)N1CCC[C@H]1[C@H](OC)[C@@H](C)C(=O)N[C@H](C)[C@@H](O)c1ccccc1)OC)N(C)C(=O)[C@@H](NC(=O)C(C)(N)CO)C(C)C (some centres unmarked) [Example 33] (H-[ξαMeS]V[Dil][Dolaproine]-X1)")
3.2
>>> endpoint_result("CC[C@H](C)[C@@H]([C@@H](CC(=O)N1CCC[C@H]1[C@H](OC)[C@@H](C)C(=O)N[C@H](C)[C@@H](O)c1ccccc1)OC)N(C)C(=O)[C@@H](NC(=O)[C@@H](NC)C(C)C)C(C)C [MMAE, monomethyl auristatin E, reference compound] (H-[NMeV]V[Dil][Dolaproine]-X1)")
1.9
>>> endpoint_result("CC[C@H](C)[C@@H]([C@@H](CC(=O)N1CCC[C@H]1[C@H](OC)[C@@H](C)C(=O)N[C@@H](Cc1ccccc1)c1nccs1)OC)N(C)C(=O)[C@@H](NC(=O)[C@H](CO)NC)C(C)C [Example 19] (H-[NMeS]V[Dil][Dolaproine]-Doe)")
2.4
>>> endpoint_result("CC[C@H](C)[C@@H]([C@@H](CC(=O)N1CCC[C@H]1[C@H](OC)[C@@H](C)C(=O)N[C@H](C)[C@@H](O)c1ccccc1)OC)N(C)C(=O)[C@@H](NC(=O)[C@H](CO)NC)C(C)C [Example 17] (H-[NMeS]V[Dil][Dolaproine]-X1)")
1.1

## Task What value of logD has been recorded for this entry: CC[C@H](C)[C@@H]([C@@H](CC(=O)N1CCC[C@H]1[C@H](OC)[C@@H](C)C(=O)N[C@@H](Cc1ccccc1)C(=O)O)OC)N(C)C(=O)[C@@H](NC(=O)[C@@H](NC)C(C)C)C(C)C [MMAF, monomethyl auristatin F, reference compound] (H-[NMeV]V[Dil][Dolaproine]F-OH)
## Result 0.03

----------
Tested on: L540cy HL
experimental details: In vitro cytotoxicity, cell proliferation assay (CellTiter-Glo, 96 h)
Format: cell-based
particulars: auristatin free drug
Where a SMILES comes first, the peptide text is derived from it. [ ]: non-standard residue; d: D form. The star is where a group is joined. Dolaproine = CO[C@@H]([C@@H]1CCCN1)[C@@H](C)C(=O)O; Dil = CC[C@H](C)[C@H](NC)[C@@H](CC(=O)O)OC; X10 = C[C@H]1OC(=O)N[C@@H]1C(=O)*; Phe(ol) = N[C@H](CO)Cc1ccccc1; NMeS = CN[C@@H](CO)C(=O)O; Dap = NC[C@H](N)C(=O)O
property label: IC50

Some molecules with known IC50 results, for comparison:
>>> endpoint_result("CC[C@H](C)[C@@H]([C@@H](CC(=O)N1CCC[C@H]1[C@H](OC)[C@@H](C)C(=O)N[C@H](CO)Cc1ccccc1)OC)N(C)C(=O)[C@@H](NC(=O)[C@H]1NC(=O)O[C@@H]1C)C(C)C [Example 42] (X10-V[Dil][Dolaproine][Phe(ol)])")
"481 nM"
>>> endpoint_result("CC[C@H](C)[C@@H]([C@@H](CC(=O)N1CCC[C@H]1[C@H](OC)[C@@H](C)C(=O)N[C@H](CO)Cc1ccccc1)OC)N(C)C(=O)[C@@H](NC(=O)[C@@H](N)CNC(C)=O)C(C)C [Example 46] (H-[Dap](Ac)V[Dil][Dolaproine][Phe(ol)])")
"> 1000 nM"
>>> endpoint_result("CC[C@H](C)[C@@H]([C@@H](CC(=O)N1CCC[C@H]1[C@H](OC)[C@@H](C)C(=O)N[C@H](C)[C@@H](O)c1ccccc1)OC)N(C)C(=O)[C@@H](NC(=O)[C@@H]1COC(=O)N1C)C(C)C [Example 37]")
"> 1000 nM"

Field: next molecule
## Task Which IC50 value belongs to CC[C@H](C)[C@@H]([C@@H](CC(=O)N1CCC[C@H]1[C@H](OC)[C@@H](C)C(=O)N[C@@H](Cc1ccccc1)C(=O)O)OC)N(C)C(=O)[C@@H](NC(=O)[C@H](CO)NC)C(C)C [Comparative Example A, reference compound] (H-[NMeS]V[Dil][Dolaproine]F-OH) ?
## Result > 1000 nM
